# study-system: Aldo-keto reductase family 1 member B1 (Homo sapiens, UniProt P15121)
# test-summary: Inhibition of human recombinant aldose reductase expressed in Escherichia coli BL21 (DE3) pLysS assessed as reduction in NADPH oxidation using L-idose as substrate
Please note: IC50 exactly at 100 nM is not met. Only values below 100 nM get met.

{"columns": ["smi", "study-system", "assigned-class"],
 "data": [
  ["COc1cc(/C=C2\\SC(=S)N(CC(=O)O)C2=O)ccc1OCC(N)=O", "Aldo-keto reductase family 1 member B1 (Homo sapiens, UniProt P15121)", "not met"],
  ["NC(=O)COc1cccc(/C=C2\\SC(=S)N(CC(=O)O)C2=O)c1", "Aldo-keto reductase family 1 member B1 (Homo sapiens, UniProt P15121)", "met"],
  ["O=C(O)CN1C(=O)/C(=C/C=C/c2ccccc2)SC1=S", "Aldo-keto reductase family 1 member B1 (Homo sapiens, UniProt P15121)", "not met"],
  ["O=C(O)CN1C(=O)S/C(=C\\c2cccc(OCCc3ccccc3)c2)C1=O", "Aldo-keto reductase family 1 member B1 (Homo sapiens, UniProt P15121)", "not met"],
  ["O=C(O)CN1C(=O)/C(=C/c2cccc(OCCc3ccccc3)c2)SC1=S", "Aldo-keto reductase family 1 member B1 (Homo sapiens, UniProt P15121)", "met"],
  ["COc1ccc(/C=C2\\SC(=S)N(CC(=O)O)C2=O)cc1OCC(N)=O", "Aldo-keto reductase family 1 member B1 (Homo sapiens, UniProt P15121)", "not met"],
  ["O=C(O)CN1C(=O)/C(=C/c2ccc(OCc3ccccc3)cc2)SC1=S", "Aldo-keto reductase family 1 member B1 (Homo sapiens, UniProt P15121)", "met"],
  ["NC(=O)COc1ccc(/C=C2\\SC(=S)N(CC(=O)O)C2=O)cc1", "Aldo-keto reductase family 1 member B1 (Homo sapiens, UniProt P15121)", "not met"],
  ["O=C(O)CN1C(=O)/C(=C/c2cccc(OCc3ccccc3)c2)SC1=S", "Aldo-keto reductase family 1 member B1 (Homo sapiens, UniProt P15121)", "met"],
  ["O=C(O)CN1C(=O)S/C(=C\\c2ccc(OCCc3ccccc3)cc2)C1=O", "Aldo-keto reductase family 1 member B1 (Homo sapiens, UniProt P15121)", "not met"],
  ["COc1cccc(/C=C2\\SC(=S)N(CC(=O)O)C2=O)c1", "Aldo-keto reductase family 1 member B1 (Homo sapiens, UniProt P15121)", "met"],
  ["COc1cc(/C=C2\\S/C(=N\\c3ccccc3)N(CC(=O)O)C2=O)ccc1OCc1ccccc1", "Aldo-keto reductase family 1 member B1 (Homo sapiens, UniProt P15121)", "not met"],
  ["COc1cc(/C=C2\\SC(=O)N(CC(=O)O)C2=O)ccc1OCc1ccccc1", "Aldo-keto reductase family 1 member B1 (Homo sapiens, UniProt P15121)", "not met"],
  ["O=C(O)CN1C(=O)/C(=C/c2ccc(Oc3ccccc3)cc2)SC1=S", "Aldo-keto reductase family 1 member B1 (Homo sapiens, UniProt P15121)", "met"],
  ["O=C(O)CN1C(=O)/C(=C/c2ccc(OCCc3ccccc3)cc2)SC1=S", "Aldo-keto reductase family 1 member B1 (Homo sapiens, UniProt P15121)", "not met"],
  ["COc1cc(/C=C2\\SC(=S)N(CC(=O)O)C2=O)ccc1OCc1ccccc1", "Aldo-keto reductase family 1 member B1 (Homo sapiens, UniProt P15121)", "met"],
  ["O=C(O)CN1C(=O)/C(=C/c2cccc(Oc3ccccc3)c2)SC1=S", "Aldo-keto reductase family 1 member B1 (Homo sapiens, UniProt P15121)", "met"]
]}
